Species: Rattus norvegicus
Assay: Open TG-GATES - Regimen: Single
Format: toxicity, organism-based, Sprague-Dawley
Design: regimen Single, gender Male, age 6 weeks
Settings: in vivo, po, 0 mg/kg, 9 h, tissue Plasma, route gavage, dose level Control
Kindly apply the following: Y if BUN is less than 10 mg/dL, N in every other case.

| compound | answer-label |
| --- | --- |
| Cc1ccc(C)c(OCCCC(C)(C)C(=O)O)c1 | N |
| C[C@@H]1C[C@H]2[C@@H]3CCC4=CC(=O)C=C[C@]4(C)[C@@]3(F)[C@@H](O)C[C@]2(C)[C@@]1(O)C(=O)CO | N |

Item CCOC(=O)CCC(=O)O[C@H]1[C@H](O[C@@H]2[C@@H](C)[C@H](O[C@H]3C[C@@](C)(OC)[C@@H](O)[C@H](C)O3)[C@@H](C)C(=O)O[C@H](CC)[C@@](C)(O)[C@H](O)[C@@H](C)C(=O)[C@H](C)C[C@@]2(C)O)O[C@H](C)C[C@@H]1N(C)C [ERYTHROMYCIN ETHYLSUCCINATE] : BUN beneath 10 mg/dL, strictly?
N

Identify whether the compound CN(C)CCCN1c2ccccc2CCc2ccccc21 records BUN below 10 mg/dL.
Y

In plain terms, does NC(N)=Nc1nc(CSCCC(N)=NS(N)(=O)=O)cs1 come in under 10 mg/dL for BUN?
Y

BUN strictly < 10 mg/dL for this compound? COc1ccc2[nH]c([S+]([O-])Cc3ncc(C)c(OC)c3C)nc2c1 (configuration not stated)
N

src = ChEMBL document CHEMBL3885861
